System: BT-549 breast
PROTOCOL: NCI tumour cell line growth inhibition, 48 h
Where a SMILES comes first, the peptide text is derived from it. [ ]: non-standard residue; d: D form. pGlu = O=C1CC[CH](C(=O)O)N1
READOUT NAME: TGI

O=c1c2ccccc2nc(-c2cc3c(cc2Cl)Sc2nccn2S3(=O)=O)n1-c1ccccc1 ... > 100 µM
CCOC(=O)c1nnsc1NC(=O)Nc1ccc(Cc2ccc(NC(=O)Nc3snnc3C(=O)OCC)cc2)cc1 ... > 100 µM
CC(=O)OC/C=C/[C@H](O[Si](C)(C)C(C)(C)C)[C@@H](O)/C=C/COC(C)=O ... > 100 µM
Cc1ccc(Cc2n[nH]c(=O)n2Nc2ccccc2)cc1 ... > 100 µM
COC(=O)c1ccc(-c2nc3cc(Cl)c(Cl)cc3nc2C#N)cc1 ... > 100 µM
CC1(C)CC(C2=NCCO2)CC(C)(C)N1 ... > 100 µM
N=C1C(c2nc3ccccc3s2)=C(O)CN1c1ccc(F)c(Cl)c1 ... > 100 µM
Clc1nc(Cl)c2ncn(CC3(Cn4cnc5c(Cl)nc(Cl)nc54)COC3)c2n1 ... 1.69 µM
COc1ccc([C@H]2CC(=O)C[C@H](c3ccc(OC)cc3)C23C(=O)c2ccccc2C3=O)cc1 ... > 100 µM
CC(=O)C1(Cc2cccc3ccccc23)S(=O)(=O)OCCOS1(=O)=O ... 30.6 µM
CN1CCC2(CC1)ONC1=NCCN12 ... > 100 µM
CC(C)Cn1cnc2c(SCc3ccc(Cl)cc3Cl)nc(N)nc21 ... > 100 µM
CCOC(=O)N1CCN(/[N+]([O-])=N/Oc2ccc([N+](=O)[O-])cc2[N+](=O)[O-])CC1 ... 18.6 µM
O=NN1C(c2ccccc2)CC(=NO)CC1c1ccccc1 (stereo unspecified) ... > 100 µM
OC(Cc1ccncc1)C(Cl)(Cl)Cl (stereo unspecified) ... > 100 µM
O=C1C(Cl)=C(Nc2cccc(Cl)c2)C(=O)N1Cc1ccc(Cl)cc1 ... 2.84 µM
C[C@]12CC[C@@H]3c4ccc(OC(=O)N(CCCl)CCCl)cc4CC[C@H]3[C@@H]1CC[C@@H]2O ... 17.1 µM
CCNC(=O)C1CCCN1C(=O)C(CCCN=C(N)N)NC(=O)C(CC(C)C)NC(=O)C(CC(C)C)NC(=O)C(Cc1ccc(O)cc1)NC(=O)C(CO)NC(=O)C(Cc1c[nH]c2ccccc12)NC(=O)C(Cc1cnc[nH]1)NC(=O)C1CCC(=O)N1 (stereo unspecified) ([pGlu]HWSYLLRP-NHEt; configuration not given here) ... > 100 µM
COc1ccc2nc3cc(Cl)ccc3c(NCCNC(=O)Cn3c(=O)n(C)c(=O)c4c3nc3c(c(=O)n(C)c(=O)n3C)[n+]4[O-])c2c1 ... 49.1 µM
CC[C@@]1(O)C(=O)OCc2c1cc1n(c2=O)Cc2c-1nc1ccccc1c2/C=N\NC(=O)C(N)CO (stereo partly specified) ... > 100 µM
C[C@]12CC[C@@H]3c4ccc(O)cc4CC[C@H]3[C@@H]1CC[C@@H]2OP(=O)(O)O ... > 100 µM
COc1c2cc(C(C)(C)C)cc1Cc1cccc(c1OCc1cccc([N+](=O)[O-])c1)Cc1cc(C(C)(C)C)cc(c1OC)Cc1cccc(c1OCc1cccc([N+](=O)[O-])c1)Cc1cc(C(C)(C)C)cc(c1OC)Cc1cccc(c1OCc1cccc([N+](=O)[O-])c1)C2 ... > 50 µM
O=C(Oc1cccc(F)c1OC(=O)c1cccc(O)c1)c1cccc(O)c1 ... > 100 µM
O=C(O)c1cc(CC2Cc3cc4c(cc3C2=O)CCC4)cc2c1CCC2 (stereo unspecified) ... > 100 µM
CC[C@@H]1c2c(C#N)ncn2-c2cnc(Nc3ccc(C(=O)NC4CCN(C5CCN(CC6CC6)CC5)CC4)cc3OC)nc2N1C1CCCC1 ... 1.85 µM
COc1cc(C(O)CCBr)c(OC)cc1C (stereo unspecified) ... > 84.4 µM
COc1cc(C=O)cc(/C=N/n2c3ccccc3c3ccccc32)c1O ... 9.7 µM
COC(=O)C(Cc1ccccc1)NP(=O)(O)OCC1OC(n2cc(Br)c(=O)[nH]c2=O)CC1O (stereo unspecified) ... > 100 µM
CCOC(=O)/C(C=Nc1ccc(-c2nc3ccccc3[nH]2)cc1)=C(/C)O ... 24.9 µM
Fc1ccc(Oc2nc3ccc(C(F)(F)F)cc3nc2-c2ccccc2)cc1 ... > 100 µM
C[C@H](NC(=O)[C@@H](C)N)[C@H](Oc1ccc2c(cnn2-c2ccc(F)cc2)c1)c1ccc2c(c1)OCCO2 ... 15 µM
O=C(Nc1ccc([As](=O)(O)O)cc1)Nc1cccc(Cl)c1Cl ... > 100 µM
O=C(O)CN(CC(=O)O)Cc1cc(C#Cc2ccc(C#Cc3ccccc3)cc2)cc(CN(CC(=O)O)CC(=O)O)n1 ... 66.6 µM
COc1ccc(OC)c(-c2nc3n(c2/C=C2/C(=O)Nc4ccccc42)CCS3)c1 ... > 100 µM
CCN(Cc1ccc(Cl)cc1)c1ccc(CO)c(Cl)c1 ... 19.4 µM
N=C(N)C1CN(CCCCCCCCCCN2CC(C(=N)N)C(=O)NC2=O)C(=O)NC1=O (stereo unspecified) ... > 10 µM
